# Test system: Human immunodeficiency virus 1
# PROTOCOL_DESCRIPTION: Inhibition of HIV1 reverse transcriptase at 200 ug/mL
Tag: true if measured inhibition is not below 80%, false if it is.

# STRUCTURE_SMILES, TESTED_ON, LABEL_VALUE
data = [
    ("O=[N+]([O-])/C=C/c1ccccc1Br", "Human immunodeficiency virus 1", "true"),
    ("CC(=O)N(C)/C=C/c1cccc(Br)c1", "Human immunodeficiency virus 1", "false"),
    ("CC(=O)N/C=C/c1ccc2ccccc2c1", "Human immunodeficiency virus 1", "false"),
    ("CC(=O)N(C)/C=C/c1ccccc1Cl", "Human immunodeficiency virus 1", "false"),
    ("CC(=O)N/C=C/c1cccc(Br)c1", "Human immunodeficiency virus 1", "false"),
    ("COc1ccc(/C=C/[N+](=O)[O-])c(OC)c1", "Human immunodeficiency virus 1", "true"),
    ("O=[N+]([O-])/C=C/c1ccc2ccccc2c1", "Human immunodeficiency virus 1", "false"),
    ("CC(=O)N/C=C\\c1ccsc1", "Human immunodeficiency virus 1", "false"),
    ("CC(=O)N/C=C/c1ccccc1Cl", "Human immunodeficiency virus 1", "false"),
    ("O=[N+]([O-])/C=C/c1cccc(Cl)c1", "Human immunodeficiency virus 1", "false"),
    ("CC(=O)N(C)/C=C/c1ccccc1F", "Human immunodeficiency virus 1", "false"),
    ("Cc1ccccc1/C=C/[N+](=O)[O-]", "Human immunodeficiency virus 1", "true"),
    ("COc1ccccc1/C=C/[N+](=O)[O-]", "Human immunodeficiency virus 1", "true"),
    ("O=[N+]([O-])/C=C/c1ccsc1", "Human immunodeficiency virus 1", "true"),
    ("COc1cc(OC)c(OC)cc1/C=C/[N+](=O)[O-]", "Human immunodeficiency virus 1", "false"),
    ("O=[N+]([O-])/C=C/c1ccc(C(F)(F)F)cc1", "Human immunodeficiency virus 1", "false"),
    ("O=[N+]([O-])/C=C/c1ccccc1O", "Human immunodeficiency virus 1", "true"),
    ("O=[N+]([O-])/C=C/c1ccccc1F", "Human immunodeficiency virus 1", "true"),
    ("O=[N+]([O-])/C=C/c1ccc(Cl)cc1", "Human immunodeficiency virus 1", "false"),
    ("CC(=O)N(C)/C=C/c1ccccc1Br", "Human immunodeficiency virus 1", "true"),
    ("CC(=O)N/C=C/c1ccccc1O", "Human immunodeficiency virus 1", "false"),
    ("CC(=O)N/C=C/c1ccccc1F", "Human immunodeficiency virus 1", "false"),
    ("O=[N+]([O-])/C=C/c1cccc(Br)c1", "Human immunodeficiency virus 1", "false"),
    ("COc1ccc(/C=C/[N+](=O)[O-])cc1", "Human immunodeficiency virus 1", "true"),
]

====

The entries below are paired with their reported IC50.
# PROTOCOL_DESCRIPTION: Inhibition of HIV1 reverse transcriptase
# Design: species or system Human immunodeficiency virus 1

# STRUCTURE_SMILES, PREFIX_OPERATOR, IC50 [µM]
records = [
    ("COc1cc(OC)c(OC)cc1/C=C/[N+](=O)[O-]", ">", 837),
    ("O=[N+]([O-])/C=C/c1ccccc1Cl", "=", 361),
    ("O=[N+]([O-])/C=C/c1cccc2ccccc12", "=", 786),
    ("COc1ccc(/C=C/[N+](=O)[O-])c(OC)c1", "=", 553),
    ("O=[N+]([O-])/C=C/c1ccc2ccccc2c1", "=", 935),
    ("O=[N+]([O-])/C=C/c1ccsc1", "=", 709),
]
